Where do these numbers come from? They come from the supplement of paper PMC9112550.

- Test system: Escherichia coli TOP10
- experiment_notes: shrunken log2 fold change of peptide-encoding DNA abundance (4.5 h post-induction vs induction); higher = less antimicrobial activity (less host growth inhibition)
- cond: time post-induction: 4.5 h; library: site-saturation at positions 5, 18, 19, 20
observed_property: shrunken log2 fold change
Enter the number alone.

Any idea what shrunken log2 fold change was measured for RRIRTRPPRLPRPRPRPAAYPRP ?
-0.000154

Please give the result for RRIRLRPPRLPRPRPRPKQQPRP too.
-0.134

Please give the result for RRIRRRPPRLPRPRPRPCRSPRP too.
-0.03

Please give the result for RRIRRRPPRLPRPRPRPGLQPRP too.
-0.0644

Please give the result for RRIRGRPPRLPRPRPRPVCGPRP too.
0.866

Please give the result for RRIRPRPPRLPRPRPRPFIAPRP too.
-0.342

Please give the result for RRIRWRPPRLPRPRPRPPEGPRP too.
0.163

Please give the result for RRIRSRPPRLPRPRPRPDFLPRP too.
-0.0689

Please give the result for RRIRIRPPRLPRPRPRPWCRPRP too.
-0.521

Please give the result for RRIRKRPPRLPRPRPRPKYCPRP too.
-0.632

Please give the result for RRIRRRPPRLPRPRPRPSVEPRP too.
0.0256

Please give the result for RRIRCRPPRLPRPRPRPACIPRP too.
-0.186

Please give the result for RRIRSRPPRLPRPRPRPVTHPRP too.
-0.152

Please give the result for RRIRCRPPRLPRPRPRPVFHPRP too.
-0.262

Please give the result for RRIRHRPPRLPRPRPRPLCDPRP too.
-0.397

---

- Tested on: Escherichia coli TOP10;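 also: peptides expressed intracellularly from a pBAD plasmid library in pooled LB shake-flask culture, induced with 0.3% L-arabinose, DNA abundance read by NGS, three biological replicates, DESeq2 with apeglm shrinkage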
- experiment_notes: shrunken log2 fold change of peptide-encoding DNA abundance (4.5 h post-induction vs induction); higher = less antimicrobial activity (less host growth inhibition)
- cond: time post-induction: 4.5 h; library: site-saturation at positions 5, 18, 19, 20
observed_property: shrunken log2 fold change
Enter the number alone.

Any idea what shrunken log2 fold change was measured for RRIRRRPPRLPRPRPRPKWNPRP ?
0.0781

Please give the result for RRIRARPPRLPRPRPRPCQMPRP too.
-0.0341

Please give the result for RRIRDRPPRLPRPRPRPEIIPRP too.
0.0753

Please give the result for RRIRNRPPRLPRPRPRPQTDPRP too.
-0.19

Please give the result for RRIRQRPPRLPRPRPRPKRIPRP too.
-0.0308

Please give the result for RRIRKRPPRLPRPRPRPIQYPRP too.
-0.193

Please give the result for RRIRARPPRLPRPRPRPFKHPRP too.
-0.27

Please give the result for RRIRARPPRLPRPRPRPQQFPRP too.
0.097

Please give the result for RRIRKRPPRLPRPRPRPTEMPRP too.
0.25

Please give the result for RRIRHRPPRLPRPRPRPVWDPRP too.
-0.0821

Please give the result for RRIRPRPPRLPRPRPRPQPWPRP too.
0.348

Please give the result for RRIRKRPPRLPRPRPRPRNFPRP too.
0.731

Please give the result for RRIRTRPPRLPRPRPRPSSHPRP too.
-0.669

Please give the result for RRIRERPPRLPRPRPRPLDIPRP too.
-0.0284

Please give the result for RRIRQRPPRLPRPRPRPQEGPRP too.
0.0274

Please give the result for RRIRHRPPRLPRPRPRPQVTPRP too.
-0.0667

Please give the result for RRIRHRPPRLPRPRPRPYYNPRP too.
-1.28

Please give the result for RRIRFRPPRLPRPRPRPGVPPRP too.
0.0248

Please give the result for RRIRLRPPRLPRPRPRPEEPPRP too.
0.0426

Please give the result for RRIRSRPPRLPRPRPRPCWVPRP too.
-0.272

Please give the result for RRIRNRPPRLPRPRPRPCPQPRP too.
0.0087

Please give the result for RRIRERPPRLPRPRPRPIWRPRP too.
0.0579

Please give the result for RRIRIRPPRLPRPRPRPQVRPRP too.
-0.223

Please give the result for RRIRPRPPRLPRPRPRPYQMPRP too.
-0.722

Please give the result for RRIRARPPRLPRPRPRPMLHPRP too.
0.206

Please give the result for RRIRFRPPRLPRPRPRPRGNPRP too.
-0.0828

Please give the result for RRIRCRPPRLPRPRPRPHAAPRP too.
0.31

Please give the result for RRIRIRPPRLPRPRPRPQPPPRP too.
-0.0122

Please give the result for RRIRMRPPRLPRPRPRPYWDPRP too.
-0.0427

Please give the result for RRIRTRPPRLPRPRPRPRGHPRP too.
0.182

Please give the result for RRIRVRPPRLPRPRPRPYQNPRP too.
-0.141

Please give the result for RRIRKRPPRLPRPRPRPDRHPRP too.
-0.091

Please give the result for RRIRWRPPRLPRPRPRPWCGPRP too.
0.273

Please give the result for RRIRVRPPRLPRPRPRPWDCPRP too.
-0.0389

Please give the result for RRIRFRPPRLPRPRPRPNSAPRP too.
-0.603

Please give the result for RRIRCRPPRLPRPRPRPYRMPRP too.
-0.197

Please give the result for RRIRMRPPRLPRPRPRPTREPRP too.
0.947

Please give the result for RRIRGRPPRLPRPRPRPQPMPRP too.
0.412

Please give the result for RRIRDRPPRLPRPRPRPNWAPRP too.
0.00788

Please give the result for RRIRDRPPRLPRPRPRPTHIPRP too.
-0.656

Please give the result for RRIRRRPPRLPRPRPRPHIEPRP too.
-0.00196

Please give the result for RRIRPRPPRLPRPRPRPQEIPRP too.
0.017

Please give the result for RRIRFRPPRLPRPRPRPRFGPRP too.
-0.0656

Please give the result for RRIRFRPPRLPRPRPRPVMYPRP too.
-0.195

Please give the result for RRIRTRPPRLPRPRPRPYDWPRP too.
-0.696

Please give the result for RRIRTRPPRLPRPRPRPSLQPRP too.
-0.0953

Please give the result for RRIRDRPPRLPRPRPRPVQDPRP too.
0.0144

Please give the result for RRIRQRPPRLPRPRPRPVRSPRP too.
0.32

Please give the result for RRIRPRPPRLPRPRPRPFWSPRP too.
-0.143

Please give the result for RRIRSRPPRLPRPRPRPHTSPRP too.
-0.445

Please give the result for RRIRTRPPRLPRPRPRPTRWPRP too.
0.301

Please give the result for RRIRFRPPRLPRPRPRPQKVPRP too.
-0.194

Please give the result for RRIRYRPPRLPRPRPRPIHLPRP too.
-1.26

Please give the result for RRIRPRPPRLPRPRPRPKQNPRP too.
0.0525

Please give the result for RRIRSRPPRLPRPRPRPPWHPRP too.
0.0809

Please give the result for RRIRFRPPRLPRPRPRPFEPPRP too.
-0.0506

Please give the result for RRIRTRPPRLPRPRPRPCYTPRP too.
-0.0244

Please give the result for RRIRDRPPRLPRPRPRPWWDPRP too.
0.083

Please give the result for RRIRLRPPRLPRPRPRPWDFPRP too.
-0.00136

Please give the result for RRIRTRPPRLPRPRPRPYAEPRP too.
-0.612

Please give the result for RRIRQRPPRLPRPRPRPQFSPRP too.
-0.525

Please give the result for RRIRLRPPRLPRPRPRPMTPPRP too.
-0.023

Please give the result for RRIRQRPPRLPRPRPRPRYAPRP too.
0.0355
